The reported numbers originate from PubChem BioAssay (NCI).

- Test system: NCI-H226 lung
- test: NCI tumour cell line growth inhibition, 48 h
Where a SMILES comes first, the peptide text is derived from it. [ ]: non-standard residue; d: D form. The star is where a group is joined. ξ: configuration not given here. ξW = NC(Cc1c[nH]c2ccccc12)C(=O)O; X30 = O=C(O)[C@H]1CCC[C@H]1N*; ξF = NC(Cc1ccccc1)C(=O)O; Boc = CC(C)(C)OC(=O)*; ξK = NCCCCC(N)C(=O)O; ξT = CC(O)C(N)C(=O)O; OBn = c1ccc(CO*)cc1; tBu = CC(C)(C)*
Provide the recorded TGI for the entries that follow.

Worked cases, answers included:
compound: CC(C)C(NC(=O)CNC(=O)C1CCCN1C(=O)C(NC(=O)OC(C)(C)C)C(C)C)C(=O)NCC(=O)OCc1ccccc1 (configuration not stated) (Boc-VPGVG-OBn; configuration not given here)
TGI: > 100 µM
--
compound: Cc1cn(C2CC(N=[N+]=[N-])C(C(=O)O)O2)c(=O)[nH]c1=O (configuration not stated)
TGI: > 100 µM
--
compound: CC(OC(C)(C)C)C(NC(=O)C(CCCCNC(=O)OC(C)(C)C)NC(=O)C(Cc1c[nH]c2ccccc12)NC(=O)C(N)Cc1ccccc1)C(=O)NC(Cc1ccccc1)C(=O)N[C@@H]1CCC[C@@H]1C(=O)O (some centres not stated) (H-[ξF][ξW][ξK](Boc)[ξT](tBu)[ξF]-X30)
TGI: 52.4 µM
--
compound: COc1cccc2cc(-c3nc(C4CCC(C(=O)O)CC4)n4ncnc(N)c34)[nH]c12 (configuration not stated)
TGI: > 7.79 µM

Your task in this section: give TGI for each listed record.
1. COC(=O)C1CCC[C@H]2C(CO)=C(C)C(=O)[C@@H]12 (some centres not stated)
2. Cc1ccc(C2SC(N)=Nc3c2c(C)nn3C(=O)c2ccc(Cl)cc2)cc1 (configuration not stated)
3. COc1cc(C(=O)Nc2cc(O)c(C/C=C(\C)CCC=C(C)C)c(O)c2)cc2c1O[C@]1(C)CC[C@@H](O)C(C)(C)[C@H]1C2

Result:
> 100 µM
> 10 µM
29 µM
